viability, T/C by entry:
- System: 624824-186-R-J3-PDC multicell spheroids, viability;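 further: luminescent signal used as a stand-in for spheroid viability; spheroids exposed to agents for seven days before luminescence read; percent viability relative to DMSO vehicle control wells taken as 100%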
- TEST DESCRIPTION: Anticancer human tumor 624824-186-R-J3-PDC patient-derived colon adenocarcinoma cell line growth inhibition [PI3K]
- STUDY CONDITIONS: second compound 0.316 µM; first compound 0.0316 µM; active compounds read low
- Excerpt: Combinatorial screen of targeted agents with the PI3K inhibitors inavolisib, alpelisib, duvelisib, and copanlisib in multi-cell type tumor spheroids A high-throughput screen of multi-cell type tumor spheroids was designed to identify active combinations of targeted small molecules and PI3K pathway inhibitors. […] Compounds. […] If the clinical Cmax for an agent had not been determined, the highest concentration tested was 10 microM. […]

[
  {
    "COMPOUND": "Cn1ncnc1[C@H]1c2n[nH]c(=O)c3cc(F)cc(c23)N[C@@H]1c1ccc(F)cc1 + CC(Nc1ccc2c(c1)OCCn1cc(N3C(=O)OCC3C(F)F)nc1-2)C(N)=O",
    "viability, T/C / %": 96.7
  },
  {
    "COMPOUND": "CCCS(=O)(=O)Nc1ccc(F)c(C(=O)c2c[nH]c3ncc(-c4ccc(Cl)cc4)cc23)c1F + CC(Nc1ccc2c(c1)OCCn1cc(N3C(=O)OCC3C(F)F)nc1-2)C(N)=O",
    "viability, T/C / %": 95.2
  },
  {
    "COMPOUND": "CNC(=O)c1ccc(N2C(=S)N(c3ccc(C#N)c(C(F)(F)F)c3)C(=O)C2(C)C)cc1F + COc1c(OCCCN2CCOCC2)ccc2c3n(c(=NC(=O)c4cnc(N)nc4)nc12)CCN3",
    "viability, T/C / %": 49.2
  },
  {
    "COMPOUND": "Cn1ncnc1[C@H]1c2n[nH]c(=O)c3cc(F)cc(c23)N[C@@H]1c1ccc(F)cc1 + CC(Nc1ncnc2nc[nH]c12)c1cc2cccc(Cl)c2c(=O)n1-c1ccccc1",
    "viability, T/C / %": 114
  },
  {
    "COMPOUND": "CC(Cn1ccc(-c2ccc(C#N)c(Cl)c2)n1)NC(=O)c1cc(C(C)O)[nH]n1 (stereo not given) + CC(Nc1ncnc2nc[nH]c12)c1cc2cccc(Cl)c2c(=O)n1-c1ccccc1",
    "viability, T/C / %": 103
  }
]
